# Test system: BV-2
# PROCEDURE_DETAILS: Inhibition of LPS-induced iNOS expression in mouse BV2 cells pretreated for 15 mins followed by LPS-stimulation after 24 hrs by western blot analysis
# Assay type: functional, cell-based
pIC50: −log10 of the molar value.
OBSERVABLE: pIC50

>  <MOL>
C=C(C)[C@@H]1Cc2cc(CO)ccc2O1

>  <MEASURED_VALUE>
4.94

$$$$
>  <MOL>
C=C1CO[C@@H]2C=C3CCC[C@H](C)[C@@]3(C)C[C@@]12O

>  <MEASURED_VALUE>
5.09

$$$$

---

# PROCEDURE_DETAILS: Cytotoxicity against mouse BV2 cells assessed as cell viability at 20 uM after 24 hrs by MTT assay relative to control
# Assay type: cell-based, BV-2
# ASSAY_CONDITIONS: read-out: Activity
OBSERVABLE: viability at 24 h, 20 µM (%)
Quick reminder: number only, in %, skip the unit.

>  <MOL>
C=C(CO)C1=C[C@@]2(C)C(=CC1=O)CCC[C@@H]2C

>  <viability at 24 h, 20 µM [%]>
73.8

$$$$
>  <MOL>
CC1=C2[C@@H](C=C3C=CC[C@H](C)[C@@]3(C)[C@H]2O)OC1=O

>  <viability at 24 h, 20 µM [%]>
79.3

$$$$
>  <MOL>
C=C(C)[C@@H]1Cc2cc(CO)ccc2O1

>  <viability at 24 h, 20 µM [%]>
85.9

$$$$
>  <MOL>
C=C1CO[C@@H]2C=C3CCC[C@H](C)[C@@]3(C)C[C@@]12O

>  <viability at 24 h, 20 µM [%]>
87.7

$$$$
>  <MOL>
CC1=C2[C@@H](C=C3CCC[C@H](C)[C@@]3(C)[C@H]2O)OC1=O

>  <viability at 24 h, 20 µM [%]>
90.2

$$$$

Identify measured viability at 24 h, 20 µM associated with `C=C(C=O)[C@@H]1C[C@@]2(C)C(=CC1=O)CCC[C@@H]2C`
46.1

Identify measured viability at 24 h, 20 µM associated with `C=C(C=O)[C@@H]1C[C@@]2(C)C(=C[C@H]1O)CCC[C@@H]2C`
44.6
